These data points were gathered from patent US10272082B2.

# EXPERIMENTAL_DETAILS: clinical
# COND: human, plasma, 250 mg, CK-2017357 Cmax, CK-2017357 daily dose 250 (mg), 14 days; No Riluzole; ALS patients

- LINE_NOTATION: "C#Cc1cnc2nc(O)n(C(CC)CC)c2n1"
  Cmax, ng/mL: 7400

---

# EXPERIMENTAL_DETAILS: clinical
# COND: human, plasma, 125 mg, CK-2017357 Cmax, CK-2017357 daily dose 125 (mg), 14 days; No Riluzole; ALS patients

- LINE_NOTATION: "C#Cc1cnc2nc(O)n(C(CC)CC)c2n1"
  OUTPUT_UNIT: "ng/mL"
  Cmax: 4100
